Target: insulin receptor peptide INSR 392–404 (Homo sapiens)
Construct: purchased RS Synthesis (Louisville, KY, USA); host or cells: chemical synthesis
Test: biochemical
Assay type: binding
Conditions: read-out: Kd (µM) INSR 392–404; UV spectrophotometry
ASSAY READOUT: Kd

| COMPOUND | Kd |
| --- | --- |
| N[C@@H](CCC(=O)O)C(=O)O [Glutamate, glutamate] | > 1000 µM |

// switching to the query compound
Q: For the record `NCC(=O)O` , what value of Kd is listed for insulin receptor peptide INSR 392–404 (Homo sapiens)?
Result: > 1000 µM

----------
Target: Opioid Receptor (mu opioid receptor peptides) (Homo sapiens, UniProt P35372)
Sequence (P35372 with tags, fused parts or gaps): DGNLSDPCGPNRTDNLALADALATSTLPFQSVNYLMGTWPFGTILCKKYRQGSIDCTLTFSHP
Experiment: Overall pattern of binding: Opioid Receptor peptides
pKd: −log10 of the molar value.
ASSAY READOUT: pKd

Q: Endpoint output: pKd of OC[C@H]1OC(O)[C@H](O)[C@@H](O)[C@@H]1O (stereo partly shown) . Value?
Result: < 4.22
